System: HT29 RNF43 G659fs (RNF43 659mut, CRISPR-edited)
Protocol text: cell viability activity relative to DMSO (negative = inhibition); higher = more viable cells (less growth inhibition)
Setup conditions: 5 µM; 96 h
Consider the following compounds and their measured cell viability activity readings.
Field: numeric (%). Do not append units.

In the examples that follow, each entry is paired with its recorded cell viability activity.
{"columns": ["Smiles structure", "Value unit", "cell viability activity"],
 "data": [
  ["CNc1ncc2cc(-c3cc(NC(=O)NCCC(C)(C)C)c(F)cc3C)c(C)nc2n1", "%", -69],
  ["CC(C)N1CCN(c2ccc(OC[C@@H]3CO[C@@](Cn4cncn4)(c4ccc(Cl)cc4Cl)O3)cc2)CC1", "%", -68],
  ["CCCOc1ccc2[nH]c(NC(=O)OC)nc2c1", "%", -69.6]
]}

# evaluate next
Ask: // returns reported cell viability activity for input NS(=O)(=O)C#Cc1ccccc1
Reply: -68.8

###

System: HT29 sg-Ctrl (RNF43 wildtype)
Protocol text: cell viability activity relative to DMSO (negative = inhibition); higher = more viable cells (less growth inhibition)
Setup conditions: 5 µM; 96 h
Label YES when cell viability activity < -80%; otherwise NO.

Ask: Is the reported cell viability activity for Cc1ccc(/C=C2\CNC/C(=C\c3ccc(C)cc3)C2=O)cc1 strictly below -80%?
Reply: YES

Ask: Determine whether this compound shows cell viability activity lower than -80% (ties excluded): O=[N+]([O-])c1ccc2c(c1)S(=O)(=O)C=C2
Reply: YES

Ask: Is the reported cell viability activity for CCC1=C[C@@H]2CN(C1)Cc1c([nH]c3ccccc13)[C@@](C(=O)OC)(c1cc3c(cc1OC)N(C)[C@H]1[C@@](O)(C(=O)OC)[C@H](OC(C)=O)[C@]4(CC)C=CCN5CC[C@]31[C@@H]54)C2 strictly below -80%?
Reply: NO

Ask: Just wondering, is cell viability activity of CNCCn1c(=O)c2cc(OC)c(OC)cc2c2cnc3cc4c(cc3c21)OCO4 below -80%?
Reply: YES

Ask: is_below(cell viability activity, -80%) for COC(=O)c1ccc2c(C(=Nc3ccc(N(C)C(=O)CN4CCN(C)CC4)cc3)c3ccccc3)c(O)[nH]c2c1 ?
Reply: NO

Ask: Field: below-cutoff. Rule: recorded cell viability activity strictly less than -80%. Subject: CC[C@@H]1C(=O)N(C)c2cnc(Nc3ccc(C(=O)NC4CCN(C)CC4)cc3OC)nc2N1C1CCCC1
Reply: YES

Ask: Given Cc1cnc(Nc2ccc(OCCN3CCCC3)cc2)nc1Nc1cccc(S(=O)(=O)NC(C)(C)C)c1 , is recorded cell viability activity strictly lower than -80%?
Reply: YES

Ask: Dear reviewer, please state whether C[C@H]1[C@@H](O)O[C@@H]2O[C@@]3(C)CC[C@H]4[C@H](C)CC[C@@H]1[C@@]24OO3 has cell viability activity strictly beneath -80%.
Reply: NO

Ask: cell viability activity under -80%? Item: NC(=O)Nc1cc(-c2cccc(F)c2)sc1C(=O)N[C@H]1CCCNC1
Reply: NO

Ask: Regarding Cc1cn([C@H]2C[C@H](N=[N+]=[N-])[C@@H](CO)O2)c(=O)[nH]c1=O , kindly confirm whether its cell viability activity is beneath -80%.
Reply: NO

###

# cell viability activity listing for each entry below
Tested on: HT29 sg-Ctrl (RNF43 wildtype)
Protocol text: cell viability activity relative to DMSO (negative = inhibition); higher = more viable cells (less growth inhibition)
Setup conditions: 5 µM; 96 h
Kindly provide the numeric value in % only, without the unit symbol.

Examples with answers:
{"columns": ["Compound", "cell viability activity [%]"],
 "data": [
  ["O=[N+]([O-])c1ccccc1S(=O)(=O)NCC1CCC(CNCC2CCc3ccccc3C2)CC1 (stereo not drawn)", -61.4],
  ["C[C@]12CC[C@@H]3c4ccc(O)cc4C[C@@H](CCCCCCCCC[S+]([O-])CCCC(F)(F)C(F)(F)F)[C@H]3[C@@H]1CC[C@@H]2O (stereo partly drawn)", -38.5]
]}

// moving on: another record for cell viability activity
Ask: Can you share its cell viability activity? I mean this compound: CC[C@H](CO)Nc1nc(NCc2ccc(-c3ccccn3)cc2)c2ncn(C(C)C)c2n1
Reply: -92.1

###

Test system: HT29 sg-Ctrl (RNF43 wildtype)
Protocol text: cell viability activity relative to DMSO (negative = inhibition); higher = more viable cells (less growth inhibition)
Setup conditions: 5 µM; 96 h
Lab note - cut at -60% for cell viability activity: Satisfied if strictly below, Not satisfied if not.

{"columns": ["Smiles structure", "Category"],
 "data": [
  ["CC(C)(C)c1cc(NC(=O)Nc2ccc(-c3cn4c(n3)sc3cc(OCCN5CCOCC5)ccc34)cc2)no1", "Not satisfied"],
  ["NC(=S)N/N=C/c1ncccc1N", "Satisfied"],
  ["O=C(/C=C\\n1cnc(-c2cc(C(F)(F)F)cc(C(F)(F)F)c2)n1)NNc1cnccn1", "Satisfied"],
  ["Cc1ccc(C(=O)Nc2cccc(C(F)(F)F)c2)cc1Nc1nc(-c2cccnc2)nc2c1cnn2C", "Not satisfied"],
  ["CN1C/C=C/CCOc2cccc(c2)-c2ccnc(n2)Nc2cccc(c2)C1", "Satisfied"]
]}

Ask: Hello, is cell viability activity of the following compound strictly smaller than -60%? O=C(NOC[C@H](O)CO)c1ccc(F)c(F)c1Nc1ccc(I)cc1F
Reply: Satisfied

Ask: Could you please tell me whether cell viability activity recorded for CN[C@H](C(=O)N[C@H](C(=O)N(C)[C@H](/C=C(\C)C(=O)O)C(C)C)C(C)(C)C)C(C)(C)c1ccccc1 is less than -60%?
Reply: Not satisfied

Ask: Quick check: does Nc1nc2[nH]cnc2c(=S)[nH]1 have cell viability activity under -60%?
Reply: Satisfied

Ask: For this compound, is cell viability activity lower than -60%? Cc1ccc([N+](=O)[O-])cc1S(=O)(=O)N(C)/N=C/c1cnc2ccc(Br)cn12
Reply: Satisfied

Ask: Consider CN(C)C(=O)c1cc2cnc(Nc3ccc(N4CCNCC4)cn3)nc2n1C1CCCC1 . Does its cell viability activity lie strictly below -60%?
Reply: Not satisfied

Ask: Is it true that cell viability activity reported for CC(C)C[C@@H](C=O)NC(=O)[C@H](CC(C)C)NC(=O)[C@H](CC(C)C)NC(=O)OCc1ccccc1 is less than -60%?
Reply: Satisfied

###

Tested on: HT29 RNF43 G659fs (RNF43 659mut, CRISPR-edited)
Protocol text: cell viability activity relative to DMSO (negative = inhibition); higher = more viable cells (less growth inhibition)
Setup conditions: 5 µM; 96 h
Item-by-item account of cell viability activity
Lab note: write values as number then unit, every time.

Worked cases, answers included:
{"columns": ["Smiles structure", "Obs value"],
 "data": [
  ["C[C@@H](C(=O)O)c1ccc(-c2ccccc2)c(F)c1", "-68.9%"],
  ["CN1CCN(c2ccc(OC(F)(F)F)c(Nc3ncc4c(n3)-c3c(c(C(N)=O)nn3CCO)CC4)c2)CC1", "-69%"]
]}

Please find the next compound below.
Ask: Consider the compound shown here: COc1cc(OC)cc(N(CCNC(C)C)c2ccc3ncc(-c4cnn(C)c4)nc3c2)c1 What is its recorded cell viability activity?
Reply: -70.3%

###

Tested on: HT29 RNF43 G659fs (RNF43 659mut, CRISPR-edited)
Protocol text: cell viability activity relative to DMSO (negative = inhibition); higher = more viable cells (less growth inhibition)
Setup conditions: 5 µM; 96 h
Recorded cell viability activity by entry
Reply with just the number (in %).

# example entries with known answers
{"columns": ["Smiles structure", "Measured parameter", "Value unit", "Obs value"],
 "data": [
  ["Nc1nc2[nH]cnc2c(=S)[nH]1", "cell viability activity", "%", -81.6],
  ["Oc1c(Cl)cc(Cl)c(Cl)c1Cc1c(O)c(Cl)cc(Cl)c1Cl", "cell viability activity", "%", -49],
  ["C[C@@H](NCCCc1cccc(C(F)(F)F)c1)c1cccc2ccccc12", "cell viability activity", "%", -78.1]
]}

Now take the following compound into account.
Ask: Can you share its cell viability activity? I mean this compound: Cc1nc(NC(=O)N2CCC[C@H]2C(N)=O)sc1-c1ccnc(C(C)(C)C(F)(F)F)c1
Reply: -49.8

###

System: HT29 sg-Ctrl (RNF43 wildtype)
Protocol text: cell viability activity relative to DMSO (negative = inhibition); higher = more viable cells (less growth inhibition)
Setup conditions: 5 µM; 96 h
Below, each entry is listed with its recorded cell viability activity.
API: value field is a number in %; no unit string.

{"columns": ["Molecule", "Value unit", "cell viability activity"],
 "data": [
  ["CC(C)(C)c1cnc(CSc2cnc(NC(=O)C3CCNCC3)s2)o1", "%", -81.8],
  ["Nc1ncnc2c1c(-c1cnc3[nH]ccc3c1)nn2C1CCCC1", "%", -78.7],
  ["CO[C@@H](C)Cn1c(=O)n(C)c2cnc3ccc(-c4cncc(C(C)(C)O)c4)cc3c21", "%", -78.6],
  ["O=C1/C(=C/c2ccccc2)C(NC2CCCCC2)c2ccccc21 (configuration not stated)", "%", -74.6],
  ["CN1CCN(Cc2ccc(Nc3ncc(Cl)c(Nc4ccccc4S(=O)(=O)N(C)C)n3)cc2)CC1", "%", -96.1],
  ["CNCCC=C1c2ccccc2CCc2ccccc21", "%", -77.1]
]}

Ask: Quick check: cell viability activity of NC(=NC1C2CC3CC(C2)CC1C3)Nc1ccc(I)cc1 (configuration not stated) ?
Reply: -69.8
